The reported measurements were obtained from patent US5891882A.

- system: α-1 Adrenoceptors (Rat Aorta) (Rattus norvegicus, UniProt P23944)
- Construct: Rat Aorta; from tissue; host or cells: rat aorta
- Sequence (P23944 whole entry): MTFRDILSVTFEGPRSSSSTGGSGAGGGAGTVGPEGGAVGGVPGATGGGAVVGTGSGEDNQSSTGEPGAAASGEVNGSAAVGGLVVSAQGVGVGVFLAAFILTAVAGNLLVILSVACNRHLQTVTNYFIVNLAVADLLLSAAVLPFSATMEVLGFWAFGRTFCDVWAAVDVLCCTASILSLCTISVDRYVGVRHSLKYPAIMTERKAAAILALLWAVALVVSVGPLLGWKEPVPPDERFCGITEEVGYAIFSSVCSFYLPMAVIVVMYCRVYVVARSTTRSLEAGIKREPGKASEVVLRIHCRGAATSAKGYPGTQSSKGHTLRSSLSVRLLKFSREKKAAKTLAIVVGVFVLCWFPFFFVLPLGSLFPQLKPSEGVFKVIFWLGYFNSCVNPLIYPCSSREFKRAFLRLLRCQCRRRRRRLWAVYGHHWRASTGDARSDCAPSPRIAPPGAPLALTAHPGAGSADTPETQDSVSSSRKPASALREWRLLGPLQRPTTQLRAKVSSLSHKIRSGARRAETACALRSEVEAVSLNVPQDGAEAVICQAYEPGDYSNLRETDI
- test method notes: Functional antagonism at α-1 adrenoceptors, rat aorta
- Assay type: cell-based
- assay conditions: read-out: In Vitro Characterization (pA2) Rat Aorta (converted)
Where a name gives a salt, the structure may show the parent alone.
Grouping key: Kb. Bins: class A: < 0.2 nM; class B: ≥ 0.2 nM and < 0.6 nM; class C: ≥ 0.6 nM

COc1cccc2c1[C@@H]1CN(CCCCn3c(=O)[nH]c4c(sc5c(OC)ccnc54)c3=O)C[C@H]1CO2 [Example 17, dihydrochloride]	class C
COc1cccc2c1[C@@H]1CN(CCCCn3c(=O)[nH]c4c(sc5nc(C)ccc54)c3=O)C[C@H]1CO2 [Example 45, hydrochloride]	class B
COc1ccc2sc3c(=O)n(CCCCN4C[C@@H]5COc6cccc(OC)c6[C@@H]5C4)c(=O)[nH]c3c2n1 [Example 30, hydrochloride]	class B
COc1cccc2c1[C@@H]1CN(CCCCn3c(=O)[nH]c4c(sc5ncc(-c6ccccc6)nc54)c3=O)C[C@@H]1CO2 [Example 39, hydrochloride]	class C

*Q* Bin? COc1cccc2c1[C@@H]1CN(CCCCn3c(=O)[nH]c4c(sc5nc(C)ccc54)c3=O)C[C@@H]1CO2 [Example 35, hydrochloride]
*A* class C

*Q* Kindly state the category for this molecule: COc1cccc2c1[C@@H]1CN(CCCCn3c(=O)[nH]c4c(sc5ncccc54)c3=O)C[C@H]1CO2 [Example 44, hydrochloride]
*A* class A

*Q* Bin this entry: COc1cccc2c1[C@@H]1CN(CCCCn3c(=O)[nH]c4c(sc5cnccc54)c3=O)C[C@H]1CO2 [Example 42, hydrochloride]
*A* class A

*Q* Could you place COc1cccc2c1[C@@H]1CN(CCCCn3c(=O)[nH]c4c(sc5cc(Cl)cnc54)c3=O)C[C@@H]1CO2 [Example 38, hydrochloride] in its proper category? Many thanks.
*A* class C

*Q* Could you place COc1ccc2sc3c(=O)n(CCCCN4C[C@H]5COc6cccc(OC)c6[C@@H]5C4)c(=O)[nH]c3c2n1 [Example 26, dihydrochloride] in its proper category? Many thanks.
*A* class A

*Q* Note: place this molecule into its band. Item: COc1cnc2sc3c(=O)n(CCCCN4C[C@@H]5COc6cccc(OC)c6[C@@H]5C4)c(=O)[nH]c3c2n1 [Example 31, hydrochloride]
*A* class C

*Q* Could you tell me which band COc1cccc2c1[C@@H]1CN(CCCCn3c(=O)[nH]c4c(sc5ccc(Cl)nc54)c3=O)C[C@H]1CO2 [Example 25, dihydrochloride] belongs to?
*A* class A
